Listed compounds paired with reported MIC of Cefotaxime in combination with the compound
System: E. cloacae 293HT6 (Class C)
Assay protocol: MIC, micro-dilution in liquid medium, β-lactamine with product at 5 mg/l
Type: cell-based
Applied conditions: compound at 5 mg/l; Trial 9, 293HT6 E. cloacae Class C; 24 hours at 37° C.
Protocol: The operation is carried out as follows, using the so-called micro-dilution in liquid medium method. […] After incubation for 24 hours in a heating chamber at 37° C., the growth inhibition is evaluated by the absence of any bacterial development, which allows the minimal inhibitory concentrations (MIC) for each strain to be determined, expressed in milligrams/l.
Lab book: enter the figure in µg/mL, no units written.

Use these answered entries as a reference point.
O=C(NCc1ccccc1)[C@H]1CC[C@@H]2CN1C(=O)N2OS(=O)(=O)[O-].[Na+] (relative stereo) [Example 34] ... 0.6
O=C(NCc1ccncc1)[C@H]1CC[C@@H]2CN1C(=O)N2OS(=O)(=O)[O-].[Na+] (relative stereo) [Example 42] ... 0.3
NC(=O)COC(=O)C1CCC2CN1C(=O)N2OS(=O)(=O)O (stereo not shown) [Example 48] ... 0.15

Q: Look up MIC of Cefotaxime in combination with the compound: O=C(NCCc1cccnc1)[C@H]1CC[C@@H]2CN1C(=O)N2OS(=O)(=O)[O-].[Na+] (relative stereo) [Example 36]
Ans: 20

====

Listed molecules paired with reported MIC of Cefotaxime in combination with the compound
Test system: E. coli 250SJ1 (Tem7)
Assay protocol: MIC, micro-dilution in liquid medium, β-lactamine with product at 5 mg/l
Type: cell-based
Applied conditions: compound at 5 mg/l; Trial 5, 250SJ1 E. coli Tem7; 24 hours at 37° C.
Procedure: The operation is carried out as follows, using the so-called micro-dilution in liquid medium method. […] After incubation for 24 hours in a heating chamber at 37° C., the growth inhibition is evaluated by the absence of any bacterial development, which allows the minimal inhibitory concentrations (MIC) for each strain to be determined, expressed in milligrams/l.
Lab book: enter the figure in µg/mL, no units written.

Q: Look up MIC of Cefotaxime in combination with the compound: CN(C)c1cccc(NC(=O)[C@H]2CC[C@@H]3CN2C(=O)N3OS(=O)(=O)[O-])c1.[Na+] (relative stereo)
Ans: 0.6

Q: Look up MIC of Cefotaxime in combination with the compound: CN(C)c1ccc(NC(=O)[C@H]2CC[C@@H]3CN2C(=O)N3OS(=O)(=O)[O-])cc1.[Na+] (relative stereo)
Ans: 0.15

Q: Look up MIC of Cefotaxime in combination with the compound: NC(=O)C(Cc1ccccc1)NC(=O)C1CCC2CN1C(=O)N2OS(=O)(=O)O (centres unmarked)
Ans: 0.08

====

Listed compounds paired with reported MIC of Piperacillin in combination with the compound
Test system: S. aureus 011GO66 (PeniR)
Assay protocol: MIC, micro-dilution in liquid medium, β-lactamine with product at 5 mg/l
Type: cell-based
Applied conditions: compound at 5 mg/l; Trial 1, 011GO66 peniR; 24 hours at 37° C.
Units required after the number.

O=C(NCCc1cccnc1)[C@H]1CC[C@@H]2CN1C(=O)N2OS(=O)(=O)[O-].[Na+] (relative stereo) [Example 36] ... 1.2 µg/mL
O=C(NCc1ccncc1)[C@H]1CC[C@@H]2CN1C(=O)N2OS(=O)(=O)[O-].[Na+] (relative stereo) [Example 42] ... 1.2 µg/mL
CN(C)c1cccc(NC(=O)[C@H]2CC[C@@H]3CN2C(=O)N3OS(=O)(=O)[O-])c1.[Na+] (relative stereo) [Example 41] ... 1.2 µg/mL
NC(=O)C(Cc1ccccc1)NC(=O)C1CCC2CN1C(=O)N2OS(=O)(=O)O (centres unmarked) [Example 44] ... 2.5 µg/mL

// next entry
Q: Look up MIC of Piperacillin in combination with the compound: O=C(NCc1cccnc1)C1CCC2CN1C(=O)N2OS(=O)(=O)O (centres unmarked) [Example 43]
Ans: 1.2 µg/mL

====

Test system: E. coli 250BE1 (SHV4)
Assay protocol: MIC, micro-dilution in liquid medium, β-lactamine with product at 5 mg/l
Type: cell-based
Applied conditions: compound at 5 mg/l; Trial 7, 250BE1 E. coli SHV4; 24 hours at 37° C.
Observation type: MIC of Cefotaxime in combination with the compound

Use these answered entries as a reference point.
O=C(NCc1cccnc1)C1CCC2CN1C(=O)N2OS(=O)(=O)O (centres unmarked) [Example 43] ... <=0.04 μg/ml
O=C(OCCc1ccncc1)[C@H]1CC[C@@H]2CN1C(=O)N2OS(=O)(=O)[O-].[Na+] (relative stereo) [Example 49] ... <=0.04 μg/ml
CN(C)c1cccc(NC(=O)[C@H]2CC[C@@H]3CN2C(=O)N3OS(=O)(=O)[O-])c1.[Na+] (relative stereo) [Example 41] ... >40 µg/mL
NC(=O)[C@@H]1CC[C@@H]2CN1C(=O)N2OS(=O)(=O)O (relative stereo) [Example 33] ... <=0.04 μg/ml

// next entry
Q: Look up MIC of Cefotaxime in combination with the compound: O=C(NCc1ccncc1)[C@H]1CC[C@@H]2CN1C(=O)N2OS(=O)(=O)[O-].[Na+] (relative stereo) [Example 42]
Ans: <=0.04 μg/ml

====

Listed compounds paired with reported IC50
Study system: β-lactamase P99 (Enterobacter cloacae, UniProt P05364)
Construct: The β-lactamases are isolated from bacterial strains which are resistant to penicillins and cephalosporins; endogenous in cells; host or cells: Enterobacter cloacae 293HT6 (natural producer; French-press lysate, 100,000 g supernatant)
Sequence (P05364 21-381): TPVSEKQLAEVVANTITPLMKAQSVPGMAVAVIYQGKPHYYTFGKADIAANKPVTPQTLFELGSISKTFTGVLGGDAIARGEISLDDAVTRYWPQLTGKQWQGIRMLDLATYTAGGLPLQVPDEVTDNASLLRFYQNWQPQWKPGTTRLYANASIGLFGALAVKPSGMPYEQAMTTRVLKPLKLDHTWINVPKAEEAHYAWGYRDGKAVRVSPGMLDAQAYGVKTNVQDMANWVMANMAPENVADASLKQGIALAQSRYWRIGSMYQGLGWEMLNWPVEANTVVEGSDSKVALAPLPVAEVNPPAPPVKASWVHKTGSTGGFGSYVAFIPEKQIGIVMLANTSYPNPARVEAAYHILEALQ
Assay protocol: biochemical
Applied conditions: 100 μM Nitrocefin, 50 mM sodium phosphate buffer pH7.0, 37° C.; read-out: IC50 nM/P99
Lab book: enter the figure in nM, no units written.

O=C(OCCc1ccncc1)[C@H]1CC[C@@H]2CN1C(=O)N2OS(=O)(=O)[O-].[Na+] (relative stereo) ... 98
CN(C)c1cccc(NC(=O)[C@H]2CC[C@@H]3CN2C(=O)N3OS(=O)(=O)[O-])c1.[Na+] (relative stereo) ... 120
O=C(NCc1ccccn1)[C@H]1CC[C@@H]2CN1C(=O)N2OS(=O)(=O)[O-].[Na+] (relative stereo) ... 56

Q: Look up IC50: O=C(NCCc1ccncc1)[C@H]1CC[C@@H]2CN1C(=O)N2OS(=O)(=O)[O-].[Na+] (relative stereo)
Ans: 160

Q: Look up IC50: COC(=O)[C@@H]1CC[C@@H]2CN1C(=O)O2 (relative stereo) [Example 26c]
Ans: 7000

====

System: E. cloacae 293HT6 (Class C)
Assay protocol: MIC, micro-dilution in liquid medium, β-lactamine with product at 5 mg/l
Type: cell-based
Applied conditions: compound at 5 mg/l; Trial 9, 293HT6 E. cloacae Class C; 24 hours at 37° C.
Observation type: MIC of Cefotaxime in combination with the compound

CN(C)c1cccc(NC(=O)[C@H]2CC[C@@H]3CN2C(=O)N3OS(=O)(=O)[O-])c1.[Na+] (relative stereo) [Example 41] ... >40 µg/mL

// next entry
Q: Look up MIC of Cefotaxime in combination with the compound: CN(C)c1ccc(NC(=O)[C@H]2CC[C@@H]3CN2C(=O)N3OS(=O)(=O)[O-])cc1.[Na+] (relative stereo) [Example 40]
Ans: >40 µg/mL

====

Study system: β-lactamase P99 (Enterobacter cloacae, UniProt P05364)
Construct: The β-lactamases are isolated from bacterial strains which are resistant to penicillins and cephalosporins; endogenous in cells; host or cells: Enterobacter cloacae 293HT6 (natural producer; French-press lysate, 100,000 g supernatant)
Assay protocol: biochemical
Applied conditions: 100 μM Nitrocefin, 50 mM sodium phosphate buffer pH7.0, 37° C.; read-out: IC50 nM/P99
Protocol: A. Preparation of the β-lactamases Tem-1 and P99 The β-lactamases are isolated from bacterial strains which are resistant to penicillins and cephalosporins (Tem1 and P99 are produced by E.coli 250HT21 and E.Cloacae 293HT6 respectively). […] The method uses Nitrocefin (OXOID), cephalosporin chromogene as substrate, of which the product hydrolyzed by the B-lactamases is red and absorbs at 485 nm. […] The quantity of enzyme was normalized and the measurements are carried out at initial speed. […]
Listed molecules paired with reported IC50
Lab book: enter the figure in nM, no units written.

Use these answered entries as a reference point.
C[C@@]12C[C@H](C(=O)OCc3ccccc3)N(C1)C(=O)N2C(=O)c1ccccc1 (relative stereo) ... 630
O=C(O)C1CCC2CN1C(=O)N2C(=O)c1ccccc1 (stereo not shown) [Example 29b] ... 4200
CN(C)c1ccc(NC(=O)[C@H]2CC[C@@H]3CN2C(=O)N3OS(=O)(=O)[O-])cc1.[Na+] (relative stereo) ... 96
NC(=O)C(NC(=O)[C@H]1CC[C@@H]2CN1C(=O)N2OS(=O)(=O)[O-])c1ccccc1.[Na+] (relative stereo) ... 43
O=C(NCCc1ccccn1)[C@H]1CC[C@@H]2CN1C(=O)N2OS(=O)(=O)[O-].[Na+] (relative stereo) ... 77
NC(=O)c1cccc(NC(=O)[C@H]2CC[C@@H]3CN2C(=O)N3OS(=O)(=O)[O-])c1.[Na+] (relative stereo) ... 50

// next entry
Q: Look up IC50: O=C(NCc1ccncc1)[C@H]1CC[C@@H]2CN1C(=O)N2OS(=O)(=O)[O-].[Na+] (relative stereo)
Ans: 70
